Where these numbers come from: ChEMBL document CHEMBL1156829

- System: Plasmodium falciparum
- EXPERIMENTAL_PROTOCOL: NOVARTIS: Inhibition of Plasmodium falciparum 3D7 (drug-susceptible) proliferation in erythrocyte-based infection assay
- Format: functional, organism-based
- TEST_PARAMETERS: Plasmodium falciparum, 3D7
MEASURED_ENDPOINT: EC50 (µM)
Report the figure in µM without appending any unit label.

Would you please look over these solved cases?
In [3]: df
Out[3]:
                                   molecule  measured_endpoint  observed
0  NC(Cc1ccccc1)C(=O)N1CCC(Nc2nsc3ccccc23)C1 (stereo not given)               EC50      1.11
1  COCCOC(=O)C1=C(C)NC2=C(C(=O)CC(c3ccc(OC)c(OC)c3)C2)C1c1ccccc1C (stereo not given)               EC50      0.11
2  Cc1ccc(C(=O)Nc2ccc(-c3nc4ccc(NC(=O)c5ccc(C)cc5)cc4[nH]3)cc2)cc1               EC50      1.57
3  CCCCCCN(C(=O)COCc1ccccc1)C(CC)c1nc2ccccc2c(=O)n1-c1ccc(F)c(Cl)c1 (stereo not given)               EC50     0.607
4        Cc1cc(C)cc(Nc2cc(C)nc3nc(C)nn23)c1               EC50     0.594
5  O=C(C=Cc1ccccc1Cl)Nc1ccc(Oc2ccc3ccccc3c2Cl)c(Cl)c1               EC50      1.03
6     CC[n+]1c(/C=C/c2ccc(C)cc2)ccc2ccccc21               EC50    0.0974
7  COc1ccc(-c2nc(NC(=O)CS(=O)(=O)c3ccccc3)sc2C)cc1               EC50     0.505

Okay, next one:
Query: EC50; subject: CC(C)CN(CC(=O)N1CCC(Nc2nsc3ccccc23)C1)S(C)(=O)=O (stereo not given)
1.98

---

- EXPERIMENTAL_PROTOCOL: NOVARTIS: Cytotoxicity against human hepatocellular carcinoma cell line (Huh7)
- Type: toxicity, cell-based, Huh-7
- TEST_PARAMETERS: Huh7 cells (hepatocellular carcinoma cell line)
// CC50 lookup, one value per entry

>>> print(df.to_string())
                                   compound  observed
0  Clc1ccc(-n2cc(-c3ccccc3)c3c(N4CCC(Cc5ccccc5)CC4)ncnc32)cc1  > 100 µM
1     CCc1nc2nc(C)cc(Nc3ccc4c(c3)OCCO4)n2n1  > 100 µM
2   COc1cccc(-c2ccc(O)c(CN(C)C3CCCCC3)c2)n1   > 13 µM
3  O=C1CSC(=Nc2ccc(F)c(Cl)c2)N1c1ccc(F)c(Cl)c1   > 10 µM
4  CCN(CC)CCN(C)C1CCc2c(c(C(=O)N3CCCC3)nn2C)C1 (stereo not given)   12.4 µM

GET /values?readout=CC50&item= "CN(C)c1ccc(N2C(N)=NC(N)=NC2(C)C)cc1"
> 10 µM

# query: CC50 of entry "O=C(c1cccs1)N1CCN(c2ccc([N+](=O)[O-])c(NC3CC3)c2)CC1"
> 100 µM

So what's the measured CC50 for this one? COc1ccc(NC(=O)N2CCN(C(=O)c3nc(-c4ccccc4)nc(C)c3C(=O)OC(C)C)CC2C)cc1 (stereo not given)
> 10 µM

I would be grateful if you could share the reported CC50 for "COc1ccc(S(=O)(=O)N=C2C=C(Nc3ccccc3OC)C(=O)c3ccccc32)cc1" .
20.1 µM

Can you share its CC50? I mean this compound: "CCOc1ccc(N2C(N)=NC(N)=NC2(C)C)cc1"
> 100 µM

---

- EXPERIMENTAL_PROTOCOL: NOVARTIS: Cytotoxicity against human hepatocellular carcinoma cell line (Huh7)
- Format: toxicity, cell-based, Huh-7
- TEST_PARAMETERS: Huh7 cells (hepatocellular carcinoma cell line)
MEASURED_ENDPOINT: CC50

                                   compound  measured_endpoint  observed
0  CC(=O)c1ccc(-n2cc(C(=O)C(C)Oc3ccc(Cl)cc3Cl)nn2)cc1 (stereo unspecified)               CC50   > 10 µM

Give the measured CC50 of "CC(=O)C(=NNc1cc(C(F)(F)F)cc(C(F)(F)F)c1)C(C)=O" .
> 10 µM

Consider the compound O=C(NCCCN1CCCC1=O)C(=O)NCC(c1ccco1)N1CCOCC1 (stereo unspecified) and give its measured CC50.
> 10 µM

Given the compound O=C(NCC1CCCO1)c1ccc([N+](=O)[O-])cc1Cl (stereo unspecified) , what is its reported CC50?
> 10 µM

Returns the measured CC50 for the input compound. Input: CC(C)CN(C(C)C(=O)NC(CN1CCCC1)c1ccccc1)S(=O)(=O)Cc1ccccc1 (stereo unspecified)
> 10 µM

Data request, read-out CC50, for C=CC1CN2CCC1CC2[C@H](O)c1ccnc2ccc(OC)cc12 (stereo partly specified)
56.5 µM

---

- System: Plasmodium falciparum
- EXPERIMENTAL_PROTOCOL: NOVARTIS: Inhibition of Plasmodium falciparum 3D7 (drug-susceptible) proliferation in erythrocyte-based infection assay
- Assay type: functional, organism-based
- TEST_PARAMETERS: Plasmodium falciparum, 3D7
MEASURED_ENDPOINT: pEC50
// field semantics: pEC50 = negative decimal log of concentration (mol/L)

Consider the reported pEC50 for these compounds:
                                   compound  observed
0  CCCCOc1cccc(NC(=O)CSC2=C(C#N)C(c3ccccc3)C(C(=O)Nc3ccccc3)=C(C)N2)c1 (stereo not given)      6.29
1  CC(=O)N1CCc2cc(Br)cc(S(=O)(=O)N(CC(C)C)CC(C)C)c21      5.91
2       CCC(=O)NNc1cc(N2CCCC2)nc(N2CCCC2)n1      6.10

Turning to the following compound.
// lookup pEC50 for "O=C(CCc1ccccc1)NCCCCNc1ccnc2cc(Cl)ccc12"
6.85

---

- EXPERIMENTAL_PROTOCOL: NOVARTIS: Cytotoxicity against human hepatocellular carcinoma cell line (Huh7)
- Format: toxicity, cell-based, Huh-7
- TEST_PARAMETERS: Huh7 cells (hepatocellular carcinoma cell line)
MEASURED_ENDPOINT: CC50

# count of solved cases: 2
COMPOUND	CC50
CC1CCN(C(=O)CSc2nc(NCc3ccccc3)c3ccccc3n2)CC1	> 10 µM
COc1ccccc1/C=C/CN1CCN(c2ccccn2)CC1	> 10 µM

Returns the measured CC50 for the input compound. Input: "O=c1c2ccccc2nc(/C=C/c2ccc([N+](=O)[O-])o2)n1-c1ccc(Br)cc1"
> 10 µM

# query: CC50 of entry "CCOc1ccc2nc3ccc([N+](=O)[O-])cc3c(NC)c2c1"
> 10 µM

Value lookup for CC50; key = "Cc1ccc(C)c2[nH]c(=O)c(CN(Cc3ccccc3)C(=S)NCCCN(C)C)cc12"
19.5 µM

Value lookup for CC50; key = "CCOc1ccccc1-n1c(N)c(C(=O)Nc2ccc(F)cc2)sc1=S"
> 100 µM

---

- EXPERIMENTAL_PROTOCOL: NOVARTIS: Cytotoxicity against human hepatocellular carcinoma cell line (Huh7)
- Type: toxicity, cell-based, Huh-7
- TEST_PARAMETERS: Huh7 cells (hepatocellular carcinoma cell line)
MEASURED_ENDPOINT: CC50

>>> df
                                   molecule  observed
0  CCC(C)C(=O)N1CCC(C(=O)Nc2ccc(-c3nc4ccccc4o3)cc2)CC1 (stereo not given)  > 100 µM

Request the reported CC50 associated with "CCCCCCCSc1nsc(NC(=O)CCC)n1"
> 10 µM

CC50 for "O=C(Nn1c(SCc2cc(=O)n3ccccc3n2)nc2ccsc2c1=O)c1cccc(Br)c1" ?
> 10 µM

---

- System: Plasmodium falciparum
- EXPERIMENTAL_PROTOCOL: NOVARTIS: Inhibition of Plasmodium falciparum 3D7 (drug-susceptible) proliferation in erythrocyte-based infection assay
- Assay type: functional, organism-based
- TEST_PARAMETERS: Plasmodium falciparum, 3D7
MEASURED_ENDPOINT: EC50 (µM)
# number only, unit µM dropped from output

>>> df
                                   molecule            system_name  observed
0   Cc1ccc(-c2c[n+](-c3ccccc3)c3n2CCCS3)cc1  Plasmodium falciparum     0.735
1  CCOC(=O)c1c(C)[nH]c(C)c1S(=O)(=O)N1CCCC(C(=O)N2CCN(c3cccc(C)c3C)CC2)C1 (stereo not given)  Plasmodium falciparum      5.26
2  S=C(NCc1ccco1)NC1CC2CCC(C1)N2Cc1ccccc1 (stereo not given)  Plasmodium falciparum     0.865
3  N=c1n(Cc2ccccc2)c2ccccc2n1CC(O)c1ccc(Br)cc1 (stereo not given)  Plasmodium falciparum     0.254
4     CC(C)Nc1ccc(Nc2ccnc3cc4ccccc4cc23)cc1  Plasmodium falciparum    0.0318

# lookup: EC50 of "CCCCN1C=Nc2cc(C(=O)NCc3ccc(OC)cc3)ccc2C1"
0.463

Entry Cn1nc(C(=O)N2CCCCCC2)c2c1CCC(NCC(C)(C)N1CCOCC1)C2 (stereo not given) has what EC50?
0.0225

EC50 lookup needed for "CCS/C(Cl)=C(/NC(=O)c1ccccc1)[P+](c1ccccc1)(c1ccccc1)c1ccccc1" , thanks.
0.11

Entry COc1cccc(NC(=O)N(Cc2ccccc2)C(C)c2nc3ccccc3c(=O)n2-c2cc(C)ccc2OC)c1 (stereo not given) has what EC50?
1.24

I am curious: what EC50 value has been reported for Cc1ccc(C2CC(C(F)(F)F)n3ncc(C(=O)Nc4ccc(OC(F)(F)F)cc4)c3N2)cc1 (stereo not given) ?
0.282

Any idea what its EC50 is? The molecule is "COc1ccc(C=NNc2nc3cc(Cl)ccc3[nH]2)cc1OC"
0.239

I have this molecule here, "O=C(Nc1ccc(NC(=O)c2ccc(C3=NCCCN3)cc2)cc1)Nc1ccc(C2=NCCCN2)cc1" , and I need its recorded EC50.
0.115

For "Cc1cc(Cl)c(S(=O)(=O)N2CCSCC2)cc1OCC(=O)NC1CCCCC1" , what is its reported EC50?
0.186

Tell me the measured EC50 of "Cc1ccc(O)c(NC(=O)c2cnn3c(C(F)(F)F)cc(-c4ccc(Br)cc4)nc23)c1" , please.
7.45

Consider the molecule "COc1ccc(/C=C/C(=O)NC(=O)c2ccccc2O)cc1" and give its measured EC50.
0.118

I would be grateful if you could share the reported EC50 for "Cc1ccn2c(NC(C)(C)CC(C)(C)C)c(-c3ccccc3OC(=O)c3ccccc3F)nc2c1" .
0.951

Give the measured EC50 of COCCN1C(=O)c2ccccc2C(C(=O)Nc2cccc(C(F)(F)F)c2)C1c1cccs1 (stereo not given) .
3.83

Query (molecule): CCCOC(=O)C1=C(C)NC2=C(C(=O)CC(c3ccc(OC)c(OC)c3)C2)C1c1ccccc1F (stereo not given) ; field requested: EC50
0.00671

What value of EC50 has been recorded for this entry: "COc1ccc(S(=O)(=O)Nc2ccc(N3CCC(Cc4ccccc4)CC3)c(C(=O)NC(C)C)c2)cc1"
2.12
